# target: human P2X3 receptor (Homo sapiens (Human), UniProt P56373)
# Sequence (P56373 whole entry): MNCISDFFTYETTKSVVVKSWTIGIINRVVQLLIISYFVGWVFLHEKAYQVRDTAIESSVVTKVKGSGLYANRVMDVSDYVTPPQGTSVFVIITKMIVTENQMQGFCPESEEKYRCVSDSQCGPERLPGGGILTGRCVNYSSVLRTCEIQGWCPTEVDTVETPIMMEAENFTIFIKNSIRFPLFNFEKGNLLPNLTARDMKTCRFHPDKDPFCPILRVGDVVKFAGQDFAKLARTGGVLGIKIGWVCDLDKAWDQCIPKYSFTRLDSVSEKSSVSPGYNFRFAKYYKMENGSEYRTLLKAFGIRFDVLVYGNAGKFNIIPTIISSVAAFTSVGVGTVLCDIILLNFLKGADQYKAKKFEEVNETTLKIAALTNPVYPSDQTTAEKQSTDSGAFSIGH
# protocol notes: Inhibitory activity on human P2X3 receptor (calcium 6 dye FLIPR assay, agonist α,β-MeATP)
# experimental setup: HEK293-P2X3 stably expressing cell line, FLIPR Tetra
pIC50: −log10 of the molar value.
experimental readout: pIC50

Please review the following examples before continuing.
INSERT INTO results (smiles_input, experimental_readout, numeric_value) VALUES
  ('CC(C)c1cnc(C#Cc2ccc(C#N)cc2)cc1Oc1cnc(N)nc1N', 'pIC50', 6.30),
  ('C=C(C)c1cnc(SC)cc1Oc1cnc(N)nc1N', 'pIC50', 7.12),
  ('CSc1cc(Oc2cnc(N)nc2N)c(C(C)C)cn1', 'pIC50', 7.35),
  ('CC(C)c1cnc(NCCO)cc1Oc1cnc(NCCO)nc1N', 'pIC50', 6.13);

I. CC(C)c1cnc(Br)cc1Oc1cnc(NCCO)nc1NCCO
II. CCNc1nc(N)ncc1Oc1cc(Br)ncc1C(C)C
III. C#Cc1cc(Oc2cnc(NCCO)nc2N)c(C(C)C)cn1
Challenge: Order these by pIC50, descending, and give the full ranking. List the labels according to the requested ordering.
Response given: III, I, II

a. C#Cc1cc(Oc2cnc(N)nc2N)c(C(=C)C)cn1
b. CC(C)Nc1cc(Oc2cnc(N)nc2N)c(C(C)C)cn1
Challenge: I'm curious, which of these has a smaller pIC50 number: a or b ? Use the label to indicate which entry you chose.
Response given: b

A. C#Cc1cc(Oc2cnc(NC(C)C)nc2N)c(C(C)C)cn1
B. C#Cc1cc(Sc2cnc(N)nc2N)c(C(C)C)cn1
Challenge: I'm curious, which of these has a smaller pIC50 number: A or B ? Use the label to indicate which entry you chose.
Response given: B
(B: 6.88, A: 7.14)
